// data source = ChEMBL document CHEMBL4825731

# System: MDR1
# ASSAY_OVERVIEW: Efflux ratio of apparent permeability in MDCK cells expressing human MDR1
# Assay type: ADME, cell-based, Canis lupus familiaris
# MEASUREMENT_SETUP: dog
Provide the reported efflux ratio of each item.
No unit in the answer, only the number.

## Task Kindly state the measured efflux ratio obtained for COc1ccc(NC(=O)c2ccc3c(c2)nc2ncccn23)cn1 with MDR1.
## Result 0.6

## Task Kindly state the measured efflux ratio obtained for COc1ccc(COc2ccn3c(n2)nc2ccccc23)cn1 with MDR1.
## Result 0.5

## Task Kindly state the measured efflux ratio obtained for [11CH3]Oc1ccc(NC(=O)c2ccn3c(n2)nc2ccccc23)cn1 with MDR1.
## Result 0.5

## Task Kindly state the measured efflux ratio obtained for COc1ccc(NC(=O)c2ccc3c4cnccc4n(C(=O)OC(C)(C)C)c3n2)cn1 with MDR1.
## Result 2

## Task Kindly state the measured efflux ratio obtained for COc1ccc(COc2ccn3c(n2)nc2ccccc23)nc1 with MDR1.
## Result 0.5

## Task Kindly state the measured efflux ratio obtained for COc1cncc(NC(=O)c2ccn3c(n2)nc2ccccc23)c1 with MDR1.
## Result 0.8

## Task Kindly state the measured efflux ratio obtained for COc1ccc(C(=O)Nc2ccn3c(n2)nc2ccccc23)cn1 with MDR1.
## Result 0.5

###

Provide the reported fraction unbound of each item.
# ASSAY_OVERVIEW: Fraction unbound in plasma concentration ratio in C57BL/6 mouse at 0.05 mg/kg, iv
# Assay type: ADME, organism-based
No unit in the answer, only the number.

## Task Consider the compound COc1cncc(NC(=O)c2ccn3c(n2)nc2ccccc23)c1 and give its measured fraction unbound.
## Result 0.07

## Task Consider the compound [11CH3]Oc1ccc(NC(=O)c2ccn3c(n2)nc2ccccc23)cn1 and give its measured fraction unbound.
## Result 0.09

###

Provide the reported efflux ratio of each item.
# Test system: BCRP
# ASSAY_OVERVIEW: Efflux ratio of apparent permeability in MDCK cells expressing human BCRP
# Assay type: ADME, cell-based, Canis lupus familiaris
# MEASUREMENT_SETUP: dog
No unit in the answer, only the number.

## Task Consider the molecule COc1ccc(NC(=O)c2ccc3c(c2)nc2ncccn23)cn1 and give its measured efflux ratio.
## Result 25

## Task Consider the molecule COc1cncc(NC(=O)c2ccn3c(n2)nc2ccccc23)c1 and give its measured efflux ratio.
## Result 2.7

## Task Consider the molecule COc1ccc(COc2ccn3c(n2)nc2ccccc23)nc1 and give its measured efflux ratio.
## Result 1.3

## Task Consider the molecule COc1ccc(C(=O)Nc2ccn3c(n2)nc2ccccc23)cn1 and give its measured efflux ratio.
## Result 2.1

## Task Consider the molecule [11CH3]Oc1ccc(NC(=O)c2ccn3c(n2)nc2ccccc23)cn1 and give its measured efflux ratio.
## Result 0.9

## Task Consider the molecule COc1ccc(COc2ccn3c(n2)nc2ccccc23)cn1 and give its measured efflux ratio.
## Result 0.5

###

# ASSAY_OVERVIEW: Unbound brain-to-plasma concentration ratio in C57BL/6 mouse at 0.05 mg/kg, iv
# Format: ADME, organism-based
# MEASUREMENT_SETUP: brain and plasma, read-out: K(p,uu,brain)
Provide the reported Kp uu of each item.
No unit in the answer, only the number.

## Task Consider the compound COc1cncc(NC(=O)c2ccn3c(n2)nc2ccccc23)c1 and give its measured Kp uu.
## Result 1

## Task Consider the compound [11CH3]Oc1ccc(NC(=O)c2ccn3c(n2)nc2ccccc23)cn1 and give its measured Kp uu.
## Result 0.9

###

# ASSAY_OVERVIEW: Fraction unbound in mouse brain homogenate at 5 uM incubated for 6 hrs shaking at 250 rpm by LC-MS/MS analysis
# Format: ADME, tissue-based
// thresholds for fraction unbound at 6 h, 5 µM classes: low = under 0.1, moderate = from 0.1 up to 0.2, high = 0.2 and over

## Task Record Cn1nc(NC(=O)c2ccn3c(n2)nc2ccccc23)ccc1=O — which class?
## Result high

## Task Record CN(C(=O)c1ccn2c(n1)nc1ccccc12)c1ccc(=O)[nH]c1 — which class?
## Result high

## Task Record [11CH3]Oc1ccc(NC(=O)c2ccn3c(n2)nc2ccccc23)cn1 — which class?
## Result moderate

## Task Record COc1cncc(NC(=O)c2ccn3c(n2)nc2ccccc23)c1 — which class?
## Result high

## Task Record COc1ccc(NC(=O)c2ccc3c(n2)oc2ccncc23)cn1 — which class?
## Result low

## Task Record FCCC1CCN(c2ccn3c(n2)nc2ccccc23)CC1 — which class?
## Result moderate

## Task Record COc1ccc(NC(=O)c2ccc3c4cnccc4n(C(=O)OC(C)(C)C)c3n2)cn1 — which class?
## Result low

## Task Record COc1ncc(NC(=O)c2ccn3c(n2)nc2ccccc23)cc1C — which class?
## Result low

## Task Record COc1ccc(COc2ccn3c(n2)nc2ccccc23)cn1 — which class?
## Result low

## Task Record COc1ccc2c(c1)nc1nc(C(=O)Nc3ccc(=O)n(C)n3)ccn12 — which class?
## Result high

## Task Record O=C(Nc1ccccn1)c1ccn2c(n1)nc1ccccc12 — which class?
## Result high

## Task Record COc1ccc2c(c1)nc1nc(C(=O)Nc3cccnc3)ccn12 — which class?
## Result moderate

## Task Record COc1ccc(NC(=O)c2ccc3c4cnccc4n(C)c3n2)cn1 — which class?
## Result low

## Task Record COc1ccc(C(=O)Nc2ccn3c(n2)nc2ccccc23)cn1 — which class?
## Result moderate

## Task Record C#CCCCNC(=O)c1ccn2c(n1)nc1cc(OC)ccc12 — which class?
## Result high

## Task Record Cn1cc(NC(=O)c2ccn3c(n2)nc2ccccc23)cnc1=O — which class?
## Result high

## Task Record COc1ccc2c(c1)nc1nc(C(=O)Nc3ccncn3)ccn12 — which class?
## Result high

## Task Record Cc1cc(NC(=O)c2ccn3c(n2)nc2ccccc23)cnc1C — which class?
## Result low

## Task Record O=C(Nc1cccnc1)c1ccn2c(n1)nc1ccccc12 — which class?
## Result high

## Task Record COc1ccc2c(c1)nc1nc(C(=O)NC3CC3)ccn12 — which class?
## Result high

## Task Record COc1ccc2c(c1)nc1nc(C(=O)NC3CCCc4cccnc43)ccn12 (centres undefined) — which class?
## Result moderate

## Task Record Cn1cc(NC(=O)c2ccn3c(n2)nc2ccccc23)ccc1=O — which class?
## Result high

###

# ASSAY_OVERVIEW: Displacement of [3]10-methoxy-N-(pyridin-3-yl-7-thia-2,5-diazatricyclo(6.4.0.0 2.6)-dodeca-1(12),3,5,8,10-pentaene-4-carboxamide from polyglutamine Q46 aggregate (unknown origin) by radio ligand binding assay
# Design: species or system Homo sapiens
# MEASUREMENT_SETUP: read-out: IC50
REPORTED_ENDPOINT: log10 of IC50 (log10 of the value in nM)
Remember, log10 of IC50, in nM.

## Task Consider the compound O=C(Nc1ccc(=O)[nH]c1)c1ccn2c(n1)nc1ccccc12 and give its measured log10 of IC50.
## Result 1.65

## Task Consider the compound COc1ccc2c(c1)sc1nc(C(=O)Nc3cccnc3)cn12 and give its measured log10 of IC50.
## Result 0.63

## Task Consider the compound C#CCCCNC(=O)c1ccn2c(n1)nc1cc(OC)ccc12 and give its measured log10 of IC50.
## Result 1.86

## Task Consider the compound O=C(Nc1ccccn1)c1ccn2c(n1)nc1ccccc12 and give its measured log10 of IC50.
## Result 0.92

## Task Consider the compound CNc1ccc(-c2cn3c(n2)sc2cc(OCCF)ccc23)cc1 and give its measured log10 of IC50.
## Result 0.76

## Task Consider the compound COc1ccc(NC(=O)c2ccc3c4cnccc4n(C)c3n2)cn1 and give its measured log10 of IC50.
## Result 0.11

## Task Consider the compound COc1ccc(NC(=O)c2ccc3c(n2)oc2ccncc23)cn1 and give its measured log10 of IC50.
## Result 0.52

## Task Consider the compound COc1ccc2c(c1)nc1nc(C(=O)N3CC(N4CCOCC4)C3)ccn12 and give its measured log10 of IC50.
## Result 2.60

## Task Consider the compound Cc1cc(NC(=O)c2ccn3c(n2)nc2ccccc23)cnc1C and give its measured log10 of IC50.
## Result 0.15

## Task Consider the compound COc1ccc2c(c1)nc1nc(C(=O)NC3CC3)ccn12 and give its measured log10 of IC50.
## Result 2.55

## Task Consider the compound Cn1cc(NC(=O)c2ccn3c(n2)nc2ccccc23)ccc1=O and give its measured log10 of IC50.
## Result 1.41

## Task Consider the compound COc1ccc2c(c1)nc1nc(C(=O)Nc3ccc(=O)n(C)n3)ccn12 and give its measured log10 of IC50.
## Result 1.08

## Task Consider the compound COc1ccc2c(c1)nc1nc(C(=O)N3Cc4cccnc4C3)ccn12 and give its measured log10 of IC50.
## Result 0.61

## Task Consider the compound COc1ccc(C(=O)Nc2ccn3c(n2)nc2ccccc23)cn1 and give its measured log10 of IC50.
## Result 0.20

## Task Consider the compound O=C(Nc1cccnc1)c1ccn2c(n1)nc1ccccc12 and give its measured log10 of IC50.
## Result 1.59

## Task Consider the compound COc1ccc(COc2ccn3c(n2)nc2ccccc23)nc1 and give its measured log10 of IC50.
## Result 1.68

## Task Consider the compound COc1ccc2c(c1)nc1nc(C(=O)Nc3ccccn3)ccn12 and give its measured log10 of IC50.
## Result 0.83

## Task Consider the compound [11CH3]Oc1ccc(NC(=O)c2ccn3c(n2)nc2ccccc23)cn1 and give its measured log10 of IC50.
## Result 0.56

## Task Consider the compound COc1ccc2c(c1)nc1nc(C(=O)Nc3ccncn3)ccn12 and give its measured log10 of IC50.
## Result 0.96

## Task Consider the compound COc1ccc(NC(=O)c2ccc3c(c2)nc2ncccn23)cn1 and give its measured log10 of IC50.
## Result 1.84

## Task Consider the compound COc1cc(NC(=O)c2ccn3c(n2)nc2ccccc23)cnc1OC and give its measured log10 of IC50.
## Result 0.76

## Task Consider the compound COc1ccc2c(c1)nc1nc(C(=O)Nc3cccnc3)ccn12 and give its measured log10 of IC50.
## Result 1.00
